biological target: HCV NS5B (Hepatitis C virus genotype 1b, UniProt Q9WMX2); construct: The protein was expressed with an 18 amino acid C-terminal truncation to enhance the solubility; made in house; host or cells: E. coli BL21 (DE3), pET21a; test: HCV NS5B RdRp enzyme assay (preincubation protocol); assay type: biochemical; details: Table 1b, read-out: IC50*
Sequence (Q9WMX2 2420-2992): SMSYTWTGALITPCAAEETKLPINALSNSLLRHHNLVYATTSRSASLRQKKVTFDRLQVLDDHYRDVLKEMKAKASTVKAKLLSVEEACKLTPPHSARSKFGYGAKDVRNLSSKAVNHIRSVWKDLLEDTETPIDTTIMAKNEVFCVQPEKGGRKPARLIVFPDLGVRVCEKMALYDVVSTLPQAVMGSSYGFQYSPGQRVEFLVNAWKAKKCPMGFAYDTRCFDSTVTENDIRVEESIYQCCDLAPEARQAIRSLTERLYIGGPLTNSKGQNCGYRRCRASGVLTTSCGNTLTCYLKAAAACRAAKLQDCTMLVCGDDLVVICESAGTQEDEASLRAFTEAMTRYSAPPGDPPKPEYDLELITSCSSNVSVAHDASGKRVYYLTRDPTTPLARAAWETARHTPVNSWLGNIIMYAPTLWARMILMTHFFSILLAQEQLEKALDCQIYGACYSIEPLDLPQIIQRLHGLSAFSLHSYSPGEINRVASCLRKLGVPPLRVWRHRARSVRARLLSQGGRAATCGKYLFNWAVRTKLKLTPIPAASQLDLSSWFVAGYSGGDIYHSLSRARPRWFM
Reported values of IC50 for individual entries

The molecule listed as COc1ccc2c(c1)C=C(C(=O)N(C)[C@H](C)C(=O)N1CCOCC1)Cn1c-2c(C2CCCCC2)c2ccc(C(=O)NS(=O)(=O)N(C)C)cc21 shows IC50 equal to < 20 nM

Sure, the documented IC50 for COc1ccc2c(c1)C=C(C(=O)N1CCN(CC(F)(F)F)CC1)Cn1c-2c(C2CCCCC2)c2ccc(C(=O)NS(=O)(=O)N(C)C)cc21 [drawing 393] is 20 to 1000 nM

Measured IC50 of COc1ccc2c(c1)CC(NC(=O)N(C)CC(=O)NC1CC1)Cn1c-2c(C2CCCCC2)c2ccc(C(=O)NS(=O)(=O)N(C)C)cc21 (stereo not shown) : 20 to 1000 nM

Measured IC50, COc1ccc2c(c1)C=C(C(=O)N1CCN(c3ncccn3)CC1)Cn1c-2c(C2CCCCC2)c2ccc(C(=O)NS(=O)(=O)N(C)C)cc21 : < 20 nM

The molecule listed as COc1ccc2c(c1)C=C(C(=O)N1CCC(CO)CC1)Cn1c-2c(C2CCCCC2)c2ccc(C(=O)NS(=O)(=O)N(C)C)cc21 has a reported IC50 of 20 to 1000 nM

Per the records, this molecule ( COc1ccc2c(c1)C=C(C(=O)N(C)Cc1nccs1)Cn1c-2c(C2CCCCC2)c2ccc(C(=O)NS(=O)(=O)N(C)C)cc21 ) has IC50 equal to < 20 nM

# molecule COc1ccc2c(c1)C=C(C(=O)N1CCN(c3cnccn3)CC1)Cn1c-2c(C2CCCCC2)c2ccc(C(=O)NS(=O)(=O)N(C)C)cc21 ; its IC50 = 20 to 1000 nM

====

target: HCV NS5B (Hepatitis C virus genotype 1b, UniProt Q9WMX2); construct: The protein was expressed with an 18 amino acid C-terminal truncation to enhance the solubility; made in house; host or cells: E. coli BL21 (DE3), pET21a; test: HCV NS5B RdRp enzyme assay (preincubation protocol); format: biochemical; settings: Table 1, read-out: IC50*
Overview of recorded IC50 for various molecules

# molecule, IC50
records = [
    ("NC(=O)C1CCN(C(=O)C2=Cc3ccccc3-c3c(C4CCCCC4)c4ccc(C(=O)O)cc4n3C2)C1 (centres unmarked)", "10 to 1000 nM"),
    ("COC(=O)c1ccc2c(C3CCCCC3)c3n(c2c1)CC(C(=O)N1CCC(C(N)=O)C1)=Cc1ccccc1-3 (centres unmarked)", "> 1000 nM"),
    ("CN1CCC2(CC1)CN(C(=O)C1=Cc3ccccc3-c3c(C4CCCCC4)c4ccc(C(=O)O)cc4n3C1)C2", "10 to 1000 nM"),
]

Consider COC(=O)c1ccc2c(C3CCCCC3)c3n(c2c1)CC(C(=O)N1CCC(N2CCC(F)CC2)CC1)=Cc1ccccc1-3 . Its measured IC50 is > 1000 nM

// recorded IC50 for CN(C)S(=O)(=O)NC(=O)c1ccc2c(C3CCCCC3)c3n(c2c1)CC(C(=O)N1CCCC(C(N)=O)C1)=Cc1ccccc1-3 (centres unmarked) : 10 to 1000 nM

Note to self: IC50 recorded for NC(=O)C1CCCN(C(=O)C2Cc3ccccc3-c3c(C4CCCCC4)c4ccc(C(=O)O)cc4n3C2)C1 (centres unmarked) was 10 to 1000 nM

Lab note: C[C@@H]1CN(C(=O)C2=Cc3ccccc3-c3c(C4CCCCC4)c4ccc(C(=O)NCCN(C)C)cc4n3C2)C[C@H](C)O1 gave IC50 of 10 to 1000 nM

Input O=C(NCc1cnn[nH]1)c1ccc2c(C3CCCCC3)c3n(c2c1)CC(C(=O)N1CCOCC1)=Cc1ccccc1-3 . Output IC50: 10 to 1000 nM
